B1: library; a variant is named by its letters at N, in order (parent)
chain: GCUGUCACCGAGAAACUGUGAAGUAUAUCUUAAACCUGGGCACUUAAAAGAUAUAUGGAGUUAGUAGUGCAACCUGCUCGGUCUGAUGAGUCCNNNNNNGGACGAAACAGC

- Variants of: B1
- Test Summary: normalized RNA/DNA level with ligand (relative to sTRSVctl = 100) (log10 (% of sTRSVctl)); HEK293T; ligand: cyclic di-GMP (c-di-GMP-II aptamer); ligand concentration (+) RNA-Seq: 1 mM; higher = less ribozyme self-cleavage, higher mRNA level
- Applied Conditions: reporter: mCherry (pCS4076), ligand present: yes
Quantity Name: normalized RNA/DNA level with ligand (log10)
// return just the number, without any unit appended

GCUGUCACCGAGAAACUGUGAAGUAUAUCUUAAACCUGGGCACUUAAAAGAUAUAUGGAGUUAGUAGUGCAACCUGCUCGGUCUGAUGAGUCCAGGUUCGGACGAAACAGC [AGGUUC] | 1.86

q: Kindly indicate its recorded normalized RNA/DNA level with ligand (log10). Item: GCUGUCACCGAGAAACUGUGAAGUAUAUCUUAAACCUGGGCACUUAAAAGAUAUAUGGAGUUAGUAGUGCAACCUGCUCGGUCUGAUGAGUCCUGCUAUGGACGAAACAGC [UGCUAU]
a: 1.83

q: Item GCUGUCACCGAGAAACUGUGAAGUAUAUCUUAAACCUGGGCACUUAAAAGAUAUAUGGAGUUAGUAGUGCAACCUGCUCGGUCUGAUGAGUCCAGCAACGGACGAAACAGC [AGCAAC] : provide normalized RNA/DNA level with ligand (log10)
a: 1.77

q: Please report normalized RNA/DNA level with ligand (log10) for the following variant: GCUGUCACCGAGAAACUGUGAAGUAUAUCUUAAACCUGGGCACUUAAAAGAUAUAUGGAGUUAGUAGUGCAACCUGCUCGGUCUGAUGAGUCCCAUGCAGGACGAAACAGC [CAUGCA]
a: 1.66

q: Recall and state the measured normalized RNA/DNA level with ligand (log10) for GCUGUCACCGAGAAACUGUGAAGUAUAUCUUAAACCUGGGCACUUAAAAGAUAUAUGGAGUUAGUAGUGCAACCUGCUCGGUCUGAUGAGUCCAUUGCAGGACGAAACAGC [AUUGCA] .
a: 1.81

q: Please list normalized RNA/DNA level with ligand (log10) recorded for the variant GCUGUCACCGAGAAACUGUGAAGUAUAUCUUAAACCUGGGCACUUAAAAGAUAUAUGGAGUUAGUAGUGCAACCUGCUCGGUCUGAUGAGUCCAUUUGCGGACGAAACAGC [AUUUGC]
a: 1.87

q: Provide only the value of recorded normalized RNA/DNA level with ligand (log10) for GCUGUCACCGAGAAACUGUGAAGUAUAUCUUAAACCUGGGCACUUAAAAGAUAUAUGGAGUUAGUAGUGCAACCUGCUCGGUCUGAUGAGUCCUUCGUGGGACGAAACAGC [UUCGUG]
a: 1.86

q: Respond only with normalized RNA/DNA level with ligand (log10) recorded for GCUGUCACCGAGAAACUGUGAAGUAUAUCUUAAACCUGGGCACUUAAAAGAUAUAUGGAGUUAGUAGUGCAACCUGCUCGGUCUGAUGAGUCCGAGCCUGGACGAAACAGC [GAGCCU]
a: 1.89

q: Output normalized RNA/DNA level with ligand (log10) of GCUGUCACCGAGAAACUGUGAAGUAUAUCUUAAACCUGGGCACUUAAAAGAUAUAUGGAGUUAGUAGUGCAACCUGCUCGGUCUGAUGAGUCCGCGUGAGGACGAAACAGC [GCGUGA]
a: 1.65
